test system: cell line ET (luc-ubi-neo/ET), human Huh7 hepatoma cell line; test: Method A: cytotoxicity in ET replicon cells (CytoTox-1); type: cell-based; settings: concentration decreasing cell viability by 50%, 72 hr
Experimental readout: Inhibition, Cytotoxicity

C=C[C@@H]1C[C@]1(NC(=O)[C@@H]1C[C@@H](Oc2cc(-c3ccccc3)nc3cc(OC)ccc23)CN1C(=O)[C@H](CNC(=O)CC)NC(=O)OC(C)(C)C)C(=O)NS(=O)(=O)c1ccccc1 : E (IC50≧10,000 nM)
C#CCN(C)C(=O)CCCC(=O)N[C@@H](CNC(=O)C=C)C(=O)N1C[C@H](Oc2cc(-c3ccccc3)nc3cc(OC)ccc23)C[C@H]1C(=O)N[C@]1(C(=O)NS(=O)(=O)c2ccccc2)C[C@H]1C=C : E (IC50≧10,000 nM)
C=CC(=O)NC[C@H](NC(=O)OC(C)(C)C)C(=O)N1C[C@H](Oc2cc(-c3ccccc3)nc3cc(OC)ccc23)C[C@H]1C(=O)N[C@]1(C(=O)NS(=O)(=O)c2ccccc2)C[C@H]1C=C : E (IC50≧10,000 nM)

Hey, just so you know, these numbers are from patent US8309685B2.
